study target: recombinant rabbit GSK-3β protein (Oryctolagus cuniculus)
Construct: purchased New England Biolabs
Sequence (G1T8E2 1-432): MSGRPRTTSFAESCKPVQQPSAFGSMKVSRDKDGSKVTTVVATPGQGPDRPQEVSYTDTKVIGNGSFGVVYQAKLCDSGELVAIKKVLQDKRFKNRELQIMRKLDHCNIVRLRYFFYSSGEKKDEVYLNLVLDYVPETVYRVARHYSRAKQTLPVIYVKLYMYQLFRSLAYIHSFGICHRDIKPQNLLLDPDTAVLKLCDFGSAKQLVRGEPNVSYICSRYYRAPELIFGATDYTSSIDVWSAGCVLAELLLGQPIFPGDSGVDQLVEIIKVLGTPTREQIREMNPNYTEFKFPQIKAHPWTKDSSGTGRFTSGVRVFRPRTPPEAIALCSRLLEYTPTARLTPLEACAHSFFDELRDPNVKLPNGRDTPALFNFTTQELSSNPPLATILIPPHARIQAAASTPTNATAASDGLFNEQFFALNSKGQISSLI
assay name: Glycogen Synthase Kinase-3 Assay
Format: biochemical
run parameters: PPI-2 substrate, 33P-ATP, 90 minutes at 30° C.
Label t when IC50 is strictly below 0.03 µM; otherwise label f.

>  <molecule>
CCn1cc(C2=C(c3nn(CCCN(C)C)c4ccccc34)C(=O)NC2=O)c2ccc(Cl)cc21 [Compound 90]

>  <assigned class>
f

$$$$
>  <molecule>
CN(CCO)CCCn1nc(C2=C(c3cn(C)c4ccc(Cl)cc34)C(=O)NC2=O)c2ccccc21 [Compound 79]

>  <assigned class>
t

$$$$
>  <molecule>
CCn1nc(C2=C(c3cn(CCCN4CCOCC4)c4ccccc34)C(=O)NC2=O)c2cc(Cl)ccc21 [Compound 86]

>  <assigned class>
f

$$$$
>  <molecule>
CCn1cc(C2=C(c3nn(CCCN(C)C)c4ccccc34)C(=O)NC2=O)c2cc(C#N)ccc21 [Compound 98]

>  <assigned class>
t

$$$$
>  <molecule>
Cn1cc(C2=C(c3nn(CCCN4CCCC4)c4ccccc34)C(=O)NC2=O)c2cc(Cl)ccc21 [Compound 75]

>  <assigned class>
f

$$$$
>  <molecule>
Cn1cc(C2=C(c3nn(CCCO)c4ccccc34)C(=O)NC2=O)c2cc(Cl)ccc21 [Compound 74]

>  <assigned class>
t

$$$$
>  <molecule>
CC(C)(C)OC(=O)NCCCn1nc(C2=C(c3cn(-c4cccnc4)c4ccccc34)C(=O)NC2=O)c2ccccc21 [Compound 115]

>  <assigned class>
f

$$$$

----------
study target: PKC β-II (Homo sapiens)
Sequence (P05771 1-673 isoform P05771-2): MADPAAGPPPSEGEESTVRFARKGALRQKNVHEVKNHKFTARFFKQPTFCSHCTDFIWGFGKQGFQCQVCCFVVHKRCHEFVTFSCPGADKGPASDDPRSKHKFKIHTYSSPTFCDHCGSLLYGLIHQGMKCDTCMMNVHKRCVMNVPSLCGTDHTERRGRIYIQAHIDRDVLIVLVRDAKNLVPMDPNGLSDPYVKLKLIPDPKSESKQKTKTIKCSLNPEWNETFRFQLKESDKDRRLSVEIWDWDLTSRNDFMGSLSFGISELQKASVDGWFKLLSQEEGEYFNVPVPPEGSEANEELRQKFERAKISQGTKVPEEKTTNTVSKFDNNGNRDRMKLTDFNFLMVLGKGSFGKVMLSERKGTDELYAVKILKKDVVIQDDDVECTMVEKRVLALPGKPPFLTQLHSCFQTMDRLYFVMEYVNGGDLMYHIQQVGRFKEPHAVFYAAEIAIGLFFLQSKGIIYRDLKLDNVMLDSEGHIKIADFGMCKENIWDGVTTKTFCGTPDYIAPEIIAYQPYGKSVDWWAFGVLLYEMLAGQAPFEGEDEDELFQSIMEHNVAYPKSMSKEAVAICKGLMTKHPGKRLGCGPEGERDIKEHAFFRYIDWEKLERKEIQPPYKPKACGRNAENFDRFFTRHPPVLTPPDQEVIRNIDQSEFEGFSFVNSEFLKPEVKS
assay name: Protein Kinase C Histone-Based Assay, β-II isoform
Format: biochemical
run parameters: histone III substrate, 30 μM ATP, 10 min at 30° C.; read-out: PKC Activity (IC50 μM, Histone Based Assay) Beta II
Protocol: Compounds were evaluated for PKC selectivity using histone III as the substrate. […] The reaction was incubated for 10 min at 30° C. Reactions were terminated by TCA precipitation and spotting on Whatman P81 filters. Filters were washed in 75 mM phosphoric acid and the radioactivity quantified by liquid scintillation counting.
Label t when IC50 is strictly below 0.01 µM; otherwise label f.

>  <compound>
CN(C)CCCn1nc(C2=C(c3cn(-c4ccc5cc(O)ccc5c4)c4ccccc34)C(=O)NC2=O)c2ccccc21

>  <assigned class>
f

$$$$
>  <compound>
CN(C)CCCn1nc(C2=C(c3cn(-c4cnc5ccccc5c4)c4ccccc34)C(=O)NC2=O)c2ccccc21

>  <assigned class>
t

$$$$
>  <compound>
CN(CCO)CCCn1nc(C2=C(c3cn(-c4cccnc4)c4ccccc34)C(=O)NC2=O)c2ccccc21

>  <assigned class>
t

$$$$
>  <compound>
CCn1cc(C2=C(c3nn(CCCN(C)C)c4ccccc34)C(=O)NC2=O)c2cc(Cl)ccc21

>  <assigned class>
t

$$$$
>  <compound>
O=C1NC(=O)C(c2nn(CCCN3CCOCC3)c3ccccc23)=C1c1cn(-c2cccnc2)c2ccccc12

>  <assigned class>
f

$$$$
>  <compound>
Cn1cc(C2=C(c3nn(CCCN4CCOCC4)c4ccccc34)C(=O)NC2=O)c2cc(Cl)ccc21

>  <assigned class>
f

$$$$
>  <compound>
O=C1NC(=O)C(c2nn(CCCO)c3ccccc23)=C1c1cn(-c2cnc3ccccc3c2)c2ccccc12

>  <assigned class>
t

$$$$
>  <compound>
O=C1NC(=O)C(c2nn(CCCN3CCCC3)c3ccccc23)=C1c1cn(-c2ccc3ccccc3c2)c2ccccc12

>  <assigned class>
f

$$$$
>  <compound>
CN(C)CCCn1nc(C2=C(c3cn(-c4cncc5ccccc45)c4ccccc34)C(=O)NC2=O)c2ccccc21

>  <assigned class>
f

$$$$
>  <compound>
CN(C)CCn1nc2ccccc2c1C1=C(c2cn(-c3csc4ccccc34)c3ccccc23)C(=O)NC1=O

>  <assigned class>
f

$$$$
>  <compound>
C=Cn1cc(C2=C(c3nn(CC(O)CN(C)C)c4ccccc34)C(=O)NC2=O)c2ccccc21 (centres unmarked)

>  <assigned class>
f

$$$$
>  <compound>
CN(C)CCCn1nc(C2=C(c3cn(-c4ccc5ccccc5c4)c4ccccc34)C(=O)NC2=O)c2ccccc21

>  <assigned class>
t

$$$$
>  <compound>
CN(C)CCCn1nc(C2=C(c3cn(-c4ccccn4)c4ccccc34)C(=O)NC2=O)c2ccccc21

>  <assigned class>
f

$$$$
>  <compound>
O=C1NC(=O)C(c2nn(CCCN3CCOCC3)c3ccccc23)=C1c1cn(-c2ccc3ccccc3c2)c2ccccc12

>  <assigned class>
f

$$$$
>  <compound>
CN(CCO)CCCn1nc(C2=C(c3cn(C)c4ccc(Cl)cc34)C(=O)NC2=O)c2ccccc21

>  <assigned class>
t

$$$$
>  <compound>
O=C1NC(=O)C(c2nn(CCCO)c3ccccc23)=C1c1cn(-c2cccnc2)c2ccccc12

>  <assigned class>
f

$$$$
>  <compound>
COCCCn1nc(C2=C(c3cn(-c4cccnc4)c4ccccc34)C(=O)NC2=O)c2ccccc21

>  <assigned class>
f

$$$$
>  <compound>
O=C1NC(=O)C(c2nn(CCCO)c3ccccc23)=C1c1cn(-c2ccc3ccccc3c2)c2ccccc12

>  <assigned class>
f

$$$$
>  <compound>
C=Cn1cc(C2=C(c3nn(CCCN(C)C)c4ccccc34)C(=O)NC2=O)c2ccccc21

>  <assigned class>
f

$$$$

This collection of values is drawn from patent US7329657B2.
